ASSAY_TARGET: T1, wild type pKal catalytic domain (human, UniProt P03952 391-638, limits assumed)
T1 construct: domain: catalytic domain; The expression in Pichia pastoris with a His tag and IMAC purification is told of the mutants; also called WT cat; Domain; not shown: His tag fusion
T1 sequence (P03952 391-638 limits assumed): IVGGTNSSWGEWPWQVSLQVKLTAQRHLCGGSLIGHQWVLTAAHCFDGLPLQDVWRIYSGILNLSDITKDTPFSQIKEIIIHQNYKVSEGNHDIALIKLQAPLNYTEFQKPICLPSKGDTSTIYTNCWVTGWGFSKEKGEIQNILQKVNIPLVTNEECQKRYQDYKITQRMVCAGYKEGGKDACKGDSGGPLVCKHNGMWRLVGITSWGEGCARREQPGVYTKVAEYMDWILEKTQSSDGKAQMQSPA
RUN_DESCRIPTION: Ki,app: enzyme inhibition, fluorescent substrate, 2 h pre-incubation at 30 C, tight-binding fit
PROPERTY_NAME: Ki (nM)
State just the number; it will be interpreted in nM.

BINDER | RESULT_NUMBER
X115-A03 (antibody, V domains shown, only variable domains given; also called 559A-X115-A03; 559A-X0115-A03) VH: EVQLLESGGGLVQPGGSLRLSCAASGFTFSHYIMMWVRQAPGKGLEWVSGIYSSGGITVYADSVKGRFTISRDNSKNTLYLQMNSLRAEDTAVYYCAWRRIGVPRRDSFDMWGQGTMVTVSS VL: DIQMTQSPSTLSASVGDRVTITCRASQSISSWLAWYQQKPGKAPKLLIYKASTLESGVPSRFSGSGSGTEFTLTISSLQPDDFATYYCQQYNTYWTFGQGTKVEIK | 0.16

Give reported Ki value for X115-G04 (antibody, V domains shown, only variable domains given; also called 559A-X115-G04; 559A-X0115-G04) VH: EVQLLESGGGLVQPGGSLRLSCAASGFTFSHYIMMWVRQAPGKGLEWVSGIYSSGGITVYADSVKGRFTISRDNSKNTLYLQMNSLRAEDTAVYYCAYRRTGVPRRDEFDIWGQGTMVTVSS VL: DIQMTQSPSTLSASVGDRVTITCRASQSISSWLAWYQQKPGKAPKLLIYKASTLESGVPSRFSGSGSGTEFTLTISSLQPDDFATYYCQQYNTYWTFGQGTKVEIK
0.3
